- test.conditions: 283.15 K; 101.33 kPa; Liquid; Vibrating tube method
Listing of entries alongside the reported mass density.
Quick reminder: number only, in kg/m3, skip the unit.

Solved entries:
- molecule: "CC/C=C\\C/C=C\\C/C=C\\CCCCCCCC(=O)OCC [ethyl 9,12,15-octadecatrienoate]"
  display.unit: "kg/m3"
  mass density: 900.8
- molecule: "CCCCCCCC/C=C\\CCCCCCCCCCCC(=O)OC [methyl (Z)-13-docosenoate]"
  display.unit: "kg/m3"
  mass density: 877.9
- molecule: "CCCCCCCC/C=C\\CCCCCCCCCC(=O)OC [methyl cis-11-eicosenoate]"
  display.unit: "kg/m3"
  mass density: 881.1
- molecule: "CCCCCC/C=C\\CCCCCCCC(=O)OC [methyl (Z)-9-hexadecenoate]"
  display.unit: "kg/m3"
  mass density: 876.6
- molecule: "CCCCC/C=C\\C/C=C\\CCCCCCCC(=O)OCC [ethyl linoleate]"
  display.unit: "kg/m3"
  mass density: 890

Now turn to the next molecule.
Using the record for CC/C=C\C/C=C\C/C=C\CCCCCCCC(=O)OC [methyl (Z,Z,Z)-9,12,15-octadecatrienoate] , report its mass density. 909.5
